molecular target: CB1 receptor (Homo sapiens); construct: expressed in transfected cells; test: Binding assay for CB1 agonists or inverse agonists (SK-N-MC membranes, [3H]-CP-55,940); details: read-out: CB1 receptor binding percent inhibition, test concentration 1 μM (footnote 1)
We begin with a simple list: items and their reported inhibition at 1 µM.
measurement label: inhibition at 1 µM (%)

INSERT INTO assay_data (compound, quantitative_result) VALUES
  ('CC12CCC(C1)C(C)(C)[C@H]2NC(=O)c1nn(-c2ccc(Cl)cc2Cl)c2c1CCCCC2Cc1cccc(Cl)c1 (stereo partly shown)', 58),
  ('O=C(NC12CC3CC(CC(C3)C1)C2)c1nn(-c2ccc(Cl)cc2Cl)c2c1CCCCC2Cc1cccc(Cl)c1 (stereo not shown)', 58),
  ('O=C(NCc1ccccc1)c1nn(C2CCCCC2)c2c1CCCCC2Cc1cccc(F)c1 (stereo not shown)', 33),
  ('O=C(NC1CCC1)c1nn(Cc2ccc(Cl)cc2)c2c1CCCCC2Cc1cccc(Cl)c1 (stereo not shown)', 13),
  ('O=C(NC12CC3CC(CC1C3)C2)c1nn(C2CCCCC2)c2c1CCCCC2Cc1cccc(Cl)c1 (stereo not shown)', 18),
  ('Cn1nc(C(=O)NC2CCC2)c2c1C(Cc1ccccc1Cl)CCCC2 (stereo not shown)', 0),
  ('CC12CCC(C1)C(C)(C)[C@H]2NC(=O)c1nn(-c2ccc(F)cc2F)c2c1CCCCC2Cc1ccc(F)cc1 (stereo partly shown)', 38),
  ('O=C(N[C@@H]1c2ccccc2C[C@@H]1O)c1nn(-c2ccc(F)cc2F)c2c1CCCCC2Cc1ccc(F)cc1 (stereo partly shown)', 39),
  ('O=C(NC12CC3CC(CC(C3)C1)C2)c1nn(C2CCCCC2)c2c1CCCCC2Cc1cccc(Cl)c1 (stereo not shown)', 18),
  ('COC(=O)[C@H](Cc1ccc(F)cc1)NC(=O)c1nn(C2CCCCC2)c2c1CCCCC2Cc1ccc(F)cc1 (stereo partly shown)', 29);

---

biological target: CB1 receptor (Homo sapiens, UniProt P21554); construct: expressed in transfected cells; assay: Binding assay for CB1 agonists or inverse agonists (SK-N-MC membranes, [3H]-CP-55,940); settings: read-out: CB1 receptor binding percent inhibition, test concentration 0.2 μM (footnote 2)
Sequence (P21554 whole entry): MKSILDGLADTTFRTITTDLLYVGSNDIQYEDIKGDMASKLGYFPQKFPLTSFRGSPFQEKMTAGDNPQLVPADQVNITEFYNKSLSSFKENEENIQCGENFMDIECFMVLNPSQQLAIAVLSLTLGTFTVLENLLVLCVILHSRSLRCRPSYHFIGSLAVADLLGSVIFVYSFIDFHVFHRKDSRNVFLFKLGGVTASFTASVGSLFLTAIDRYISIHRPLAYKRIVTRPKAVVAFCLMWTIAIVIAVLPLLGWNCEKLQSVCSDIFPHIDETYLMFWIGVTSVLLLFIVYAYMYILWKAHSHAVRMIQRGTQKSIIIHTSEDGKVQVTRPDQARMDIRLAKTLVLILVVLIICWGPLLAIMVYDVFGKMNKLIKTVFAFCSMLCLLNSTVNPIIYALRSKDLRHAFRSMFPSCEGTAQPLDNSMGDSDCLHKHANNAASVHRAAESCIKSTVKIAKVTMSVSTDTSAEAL
Use 60% as the dividing line for inhibition at 0.2 µM, with the line itself on the label 1 side and lower values as label 0.

INSERT INTO results (compound, label_value) VALUES
  ('O=C(N[C@H](CO)Cc1ccc(O)cc1)c1n[nH]c2c1CCCC/C2=C\c1cccc(Cl)c1 [Cpd 246]', 'label 0'),
  ('C[C@@H](NC(=O)c1n[nH]c2c1CCCC/C2=C\c1ccc(Cl)cc1)C1CCCCC1 [Cpd 140]', 'label 1'),
  ('O=C(NN1CCCCC1)c1nn(-c2ccc(Cl)cc2Cl)c2c1CCCC/C2=C\c1ccc(F)cc1 [Cpd 150]', 'label 1'),
  ('C[C@H](NC(=O)c1nn(-c2ccccc2Cl)c2c1CCCC/C2=C\c1ccc(Cl)cc1)c1ccccc1 [Cpd 191]', 'label 0'),
  ('C[C@@H](NC(=O)c1nn(-c2ccncc2)c2c1CCCC/C2=C\c1ccc(Cl)cc1)c1ccccc1 [Cpd 170]', 'label 0'),
  ('C[C@H](NC(=O)c1nn(-c2ccc(Cl)cc2Cl)c2c1CCCC/C2=C\c1ccc(F)cc1)C1CCCCC1 [Cpd 148]', 'label 1'),
  ('CC(C)[C@@H](CO)NC(=O)c1nn(-c2ccc(Cl)cc2Cl)c2c1CCCC[C@@H]2Cc1cccc(Cl)c1 [Cpd 158]', 'label 0'),
  ('O=C(N[C@@H](CO)Cc1ccccc1)c1nn(-c2ccc(Cl)cc2Cl)c2c1CCCCC2Cc1cccc(Cl)c1 (some centres unmarked) [Cpd 163]', 'label 0'),
  ('C[C@H](NC(=O)c1n[nH]c2c1CCCC/C2=C\c1ccc(Cl)cc1)C1CCCCC1 [Cpd 143]', 'label 1'),
  ('COc1ccc(/C=C2\CCCCc3c(C(=O)N[C@@H]4CCc5ccccc54)nn(-c4ccc(Cl)cc4Cl)c32)cc1 [Cpd 216]', 'label 1'),
  ('C[C@@H](NC(=O)c1nn(-c2ccccc2Cl)c2c1CCCC/C2=C\c1ccc(Cl)cc1)C1CCCCC1 [Cpd 189]', 'label 1'),
  ('C[C@@H](NS(=O)(=O)/C=C/c1n[nH]c2c1CCCC/C2=C\c1ccc(Cl)cc1)c1ccccc1 [Cpd 236]', 'label 0'),
  ('O=C(NCc1ccncc1)c1nn(-c2ccc(Cl)cc2Cl)c2c1CCCC/C2=C\c1ccc(Cl)cc1 [Cpd 156]', 'label 0'),
  ('COc1ccc(/C=C2\CCCCc3c(C(=O)N[C@H](C)c4ccccc4)nn(-c4ccc(Cl)cc4Cl)c32)cc1 [Cpd 212]', 'label 1'),
  ('O=C(N[C@H](CO)c1ccccc1)c1nn(-c2ccc(Cl)cc2Cl)c2c1CCCC/C2=C\c1ccc(F)cc1 [Cpd 204]', 'label 1'),
  ('C[C@H](NC(=O)c1nn(-c2ccncc2)c2c1CCCC/C2=C\c1ccc(Cl)cc1)C1CCCCC1 [Cpd 181]', 'label 0'),
  ('COC(=O)[C@H](Cc1ccc(F)cc1)NC(=O)c1nn(C)c2c1CCCC/C2=C\c1cccc(F)c1 [Cpd 241]', 'label 0'),
  ('C[C@H](NS(=O)(=O)/C=C/c1n[nH]c2c1CCCCC2Cc1cccc(F)c1)c1ccccc1 (single isomer, unassigned) [Cpd 232]', 'label 0'),
  ('O=C(N[C@@H]1CCc2ccccc21)c1nn(-c2ccc(Cl)cc2Cl)c2c1CCCC/C2=C\c1ccc(F)cc1 [Cpd 207]', 'label 1'),
  ('COc1ccc(/C=C2\CCCCc3c(C(=O)NC(C)(C)c4ccccc4)nn(-c4ccc(Cl)cc4Cl)c32)cc1 [Cpd 211]', 'label 1'),
  ('Cn1nc(C(=O)N[C@H](CO)Cc2ccc(O)cc2)c2c1/C(=C/c1cccc(F)c1)CCCC2 [Cpd 244]', 'label 1'),
  ('C[C@@H](NC(=O)c1nn(-c2ccc(S(N)(=O)=O)cc2)c2c1CCCC/C2=C\c1ccc(Cl)cc1)c1ccccc1 [Cpd 184]', 'label 1'),
  ('O=C(N[C@H](CO)c1ccccc1)c1nn(-c2ccc(Cl)cc2Cl)c2c1CCCC[C@H]2Cc1cccc(Cl)c1 [Cpd 162]', 'label 0'),
  ('O=C(Nc1ccncc1)c1nn(-c2ccc(Cl)cc2Cl)c2c1CCCC/C2=C\c1ccc(Cl)cc1 [Cpd 153]', 'label 0'),
  ('C[C@H](NS(=O)(=O)/C=C/c1n[nH]c2c1CCCC/C2=C\c1ccc(Cl)cc1)c1ccccc1 [Cpd 237]', 'label 0'),
  ('C[C@H](NC(=O)c1nn(-c2ccc(Cl)cc2Cl)c2c1CCCC/C2=C\c1ccc(F)cc1)c1ccccc1 [Cpd 149]', 'label 1');

---

molecular target: CB2 receptor (Homo sapiens, UniProt P34972); construct: expressed in transfected cells; experiment: Binding assay for CB2 agonists or inverse agonists (SK-N-MC membranes, [3H]-CP-55,940); conditions: test concentration not stated
Sequence (P34972 whole entry): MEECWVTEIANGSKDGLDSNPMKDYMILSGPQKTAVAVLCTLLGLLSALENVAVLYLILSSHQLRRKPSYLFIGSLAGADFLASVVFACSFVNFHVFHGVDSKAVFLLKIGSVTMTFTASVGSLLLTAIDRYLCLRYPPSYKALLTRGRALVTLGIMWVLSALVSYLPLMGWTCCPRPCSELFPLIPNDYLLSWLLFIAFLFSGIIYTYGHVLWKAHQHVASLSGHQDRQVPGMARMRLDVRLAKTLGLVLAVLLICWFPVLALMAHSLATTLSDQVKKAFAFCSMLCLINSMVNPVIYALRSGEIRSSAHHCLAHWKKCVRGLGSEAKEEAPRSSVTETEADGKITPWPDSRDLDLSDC
Classify on CB2 receptor binding percent inhibition using A = under 30%, B = from 30% up to 50%, C = 50% and over

INSERT INTO assay_data (compound, label_value) VALUES
  ('C[C@H](NS(=O)(=O)/C=C/c1nn(-c2ccc(F)cc2F)c2c1CCCCC2Cc1ccc(F)cc1)c1ccccc1 (stereo partly shown) [Cpd 107]', 'C'),
  ('C[C@H](NC(=O)c1nn(Cc2ccccc2)c2c1CCCCC2c1ccccc1)c1ccccc1 (stereo partly shown) [Cpd 48]', 'B'),
  ('O=C(NC1C2CC3CC(C2)CC1C3)c1nn(-c2ccc(Cl)cc2Cl)c2c1CCCCC2Cc1cccc(Cl)c1 (stereo not shown) [Cpd 17]', 'A'),
  ('O=C(N[C@@H]1c2ccccc2C[C@@H]1O)c1nn(-c2ccc(F)cc2F)c2c1CCCCC2Cc1ccc(F)cc1 (stereo partly shown) [Cpd 119]', 'B'),
  ('O=C(NC1CCCC1)c1nn(C2CCCCC2)c2c1CCCCC2Cc1ccc(F)cc1 (stereo not shown) [Cpd 59]', 'C'),
  ('O=C(NN1CCCCC1)c1nn(-c2ccc(Cl)cc2Cl)c2c1CCCCC2Cc1ccc(F)cc1 (stereo not shown) [Cpd 85]', 'A'),
  ('O=C(N[C@@H]1c2ccccc2C[C@@H]1O)c1nn(C2CCCCC2)c2c1CCCCC2Cc1cccc(F)c1 (single isomer, unassigned) [Cpd 115]', 'C'),
  ('CCOC(=O)[C@H]1C2C=CC(C2)[C@H]1NC(=O)c1nn(C2CCCCC2)c2c1CCCCC2Cc1ccc(F)cc1 (stereo partly shown) [Cpd 88]', 'B'),
  ('O=C(NN1CCCCC1)c1nn(-c2ccc(Cl)cc2Cl)c2c1CCCCC2Cc1ccc(Cl)cc1 (stereo not shown) [Cpd 27]', 'A'),
  ('C[C@H](NS(=O)(=O)/C=C/c1nn(C2CCCCC2)c2c1CCCCC2Cc1cccc(F)c1)c1ccccc1 (stereo partly shown) [Cpd 75]', 'A'),
  ('O=C(N[C@@H]1c2ccccc2C[C@@H]1O)c1nn(C2CCCCC2)c2c1CCCCC2Cc1cccc(F)c1 (single isomer, unassigned) [Cpd 114]', 'B'),
  ('C[C@H](NC(=O)c1nn(C2CCCCC2)c2c1CCCCC2Cc1ccc(Cl)cc1)c1ccccc1 (stereo partly shown) [Cpd 5]', 'B'),
  ('O=C(NCc1ccccc1)c1nn(C2CCCCC2)c2c1CCCCC2Cc1cccc(F)c1 (stereo not shown) [Cpd 53]', 'C');
